TEST_SYSTEM: T1, human CD73 on cells (Calu6, NCI-H292, SK-MEL-24, human tumor cell lines, human B and T cells) (human, UniProt P21589 27-549)
T1 sequence: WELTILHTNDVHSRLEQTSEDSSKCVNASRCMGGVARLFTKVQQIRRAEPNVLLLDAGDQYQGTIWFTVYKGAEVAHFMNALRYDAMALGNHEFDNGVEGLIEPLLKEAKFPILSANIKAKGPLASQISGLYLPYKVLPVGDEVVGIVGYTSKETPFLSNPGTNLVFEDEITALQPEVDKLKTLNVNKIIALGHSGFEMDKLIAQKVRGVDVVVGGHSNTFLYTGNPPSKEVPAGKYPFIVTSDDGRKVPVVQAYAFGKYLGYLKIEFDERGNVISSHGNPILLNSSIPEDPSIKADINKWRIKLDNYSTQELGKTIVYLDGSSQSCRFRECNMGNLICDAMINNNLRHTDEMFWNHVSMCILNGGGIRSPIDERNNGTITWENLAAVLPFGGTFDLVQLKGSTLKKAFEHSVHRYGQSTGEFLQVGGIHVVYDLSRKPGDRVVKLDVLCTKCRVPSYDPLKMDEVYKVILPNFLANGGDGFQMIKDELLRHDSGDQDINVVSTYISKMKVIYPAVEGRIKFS
ASSAY_EXPLANATION: cell-based or functional assay
ASSAY_READOUT: EC50 Calu6 inhibition (nM)
The figure you give is taken to be in nM; do not add the unit.

### Prompt Quick one: EC50 Calu6 inhibition for 11F11 (antibody, human IgG2, kappa, V domains shown, Human IgG2 from hybridoma) VH: QVQLVESGGGVVQPGRSLRLSCATSGFTFSNYGMHWVRQAPGKGLEWVAVILYDGSNKYYPDSVKGRFTISRDNSKNTLYLQMNSLRAEDTAVYYCARGGSSWYPDSFDIWGQGTMVTVSS VL: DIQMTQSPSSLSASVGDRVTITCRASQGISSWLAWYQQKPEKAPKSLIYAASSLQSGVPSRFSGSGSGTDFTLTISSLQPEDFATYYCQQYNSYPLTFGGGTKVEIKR ?
### Response 0.7
